Measured koff by item
targetSystem: T1, human PD-L1 recombinant protein, PD-L1-his (human, UniProt Q9NZQ7 19-238)
T1 construct: also called PD-L1 with a his-tag; not shown: his-tag
T1 sequence (Q9NZQ7 19-238 limits assumed): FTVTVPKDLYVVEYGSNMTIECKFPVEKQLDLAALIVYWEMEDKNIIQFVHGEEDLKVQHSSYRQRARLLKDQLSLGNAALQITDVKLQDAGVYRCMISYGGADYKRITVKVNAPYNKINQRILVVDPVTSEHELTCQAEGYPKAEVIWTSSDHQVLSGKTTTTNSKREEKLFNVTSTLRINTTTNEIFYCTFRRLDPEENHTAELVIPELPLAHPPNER
experimentDescription: Gator BLI; antibody on HFC sensor, PD-L1-his in solution; 1:1 fit
assayReadout: koff (s⁻¹)

>>> datavalue("Clone C (antibody, V domains shown, Mouse hybridoma clone) VH: EVQLQQSGADLVKPGASVKLSCTASGFNIKDTYMHWVKQRPEQGLEWIGRIDPANGNTKYDPKFQGKATITTDTSSNTAYLQLSSLTSEDTAVYYCARGLGRWFAYWGQGTLVTVSA VL: DIVMTQSHKFMSTSVGDRVSITCKASQDVSNAVAWYQQKPGQSPELLIYSASNRYTGVPDRFTGSGSGTDFTFTISSVQAEDLAVYYCQQHDSTPLTFGAGTKLELK")
0.00101
>>> datavalue("Clone B (antibody, V domains shown, Mouse hybridoma clone) VH: QGQMQQSGAELVKPGASVKLSCKTSGFTFSSSYISWLKQKPGQSLEWIAWIYAGTGGTSYNQKFTGKAQLTVDTPSSTAYMQFSSLTTEDSAIYYCARHEGKYWYFDVWGAGTTVTVSS VL: QILLTQSPAIMSASPGEKVTMTCSASSSVSYVHWYQQKPGSSPKPWIYDTSNLASGFPARFSGSGSGTSYSLIISSMEAEDAATYYCHQRSSYPWTFGGGTKLEIK")
0.0006
>>> datavalue("Clone D (antibody, V domains shown, Mouse hybridoma clone) VH: EVQLQQSGPELVKPGASMKISCKASGYSFTGYTMNWVKQSHGKNLEWIGLIIPYNGGISYNQKFKDKATLTVDKSSSTAYMELLSLTSEDSAVYYCASLITTAPRDSMDYWGQGTSVTVSS VL: DIQMTQTTSSLSASLGDRVTISCRASQDISNYLNWYQQKPDGSVKLLIYYTSKLHSGVPSRFSGSGSGTDYSLTISNLEQEDIATYFCQQGDALPWTFGGGTKLEIK")
0.000826
>>> datavalue("Clone N (antibody, V domains shown, Mouse hybridoma clone) VH: EVQLQQSGPELVKPGASMKISCKASGYSFTGYTMNWVKQSHGKNLEWIGLIIPHNGGTSYNQKFKDKATLTVDKSSRTAYMELLSLTSEDSAVYYCASLMTTAPRDSMDYWGQGTSVTVSS VL: DIQMTQTTSSLSASLGDRVTISCRASQDISNYLNWYQQKPDGTVKLLIYYTSRLHSGVPSRFSGSGSGTDYSLTISNLDQEDIATYFCQQGATLPWTFGGGTKLEIK")
0.000582
